target: human M3 muscarinic receptor (hM3R) (Homo sapiens, UniProt P20309, DEL271-484); construct: hM3R-YFP-CFP (EYFP replaces segment between Ala270 and Lys485 in ICL3; Cerulean at C-terminus); assay: intramolecular receptor FRET in HEK293T cells, concentration-response
RECORDED ENDPOINT: pEC50
Give bare numbers, as −log10 of the molar value.

## Task What value of pEC50 has been reported for the following compound? C[N+](C)(C)CC#CCN1CCCC1=O [Oxo-M, oxotremorine-M]
## Result 6.95
